Each entry below carries its recorded TGI.
- Test system: COLO 205 colon
- test-name: NCI tumour cell line growth inhibition, 48 h
value-type: TGI

1) Cc1nnc2sc(-c3ccc(-c4ccccc4Cl)o3)nn12 : > 100 µM
2) CSc1nc(-c2ccccc2)c2c(n1)-c1ccccc1CC2 : > 100 µM
3) CN(C)c1ccc(C(N)=O)cn1 : > 100 µM
4) O=C1CC2C(=O)N(Cc3ccccc3)C1C(S(=O)(=O)c1ccccc1)C2S(=O)(=O)c1ccccc1 (configuration not stated) : 3.18 µM
5) CN(C)c1ccc(N=Nc2c([O-])ccc3ccccc23)cc1.[C-]#[O+].[C-]#[O+].[Ir] : 31.6 µM
6) CCOC(=O)N1CCN(C(=O)Nc2cccc3ccccc23)CC1 : > 10 µM
7) COC(=O)C(Cc1nc2ccc(Cl)cc2[nH]c1=O)C(=O)C(=O)Nc1ccccc1[N+](=O)[O-] (configuration not stated) : > 100 µM
8) Cc1cc(C2(c3cc(C)c(O)c(C(=O)O)c3)OS(=O)(=O)c3ccccc32)cc(C(=O)O)c1O : > 100 µM
9) C=C[C@]1(C)C=C2C(=O)[C@@]3(O)OC[C@@]4(CCCC(C)(C)C43O)C2(O)C(O)C1 (some centres not stated) : 3.08 µM
10) S=c1ssc(Sc2ccccn2)c1Cl : 38.7 µM
11) O=C(O)CCC1CCc2cccc3occ1c23 (configuration not stated) : > 100 µM
12) CC(C)=CC(=O)CC(=O)C(=O)Nc1ccc(Cl)c(Cl)c1 : > 100 µM
13) CN(C)Cc1cc(N=Nc2ccccc2Cl)cc(CN(C)C)c1O : > 100 µM
14) NC1=Nc2ccccc2Sc2nnc(-c3ccc(Cl)cc3)n21 : > 100 µM
15) CC(CCc1ccc2c(c1)c(=N)c1ccc(N)cc1n2O)CC(C)(C)C (configuration not stated) : 2.79 µM
16) Clc1ncnc2c1nc(C#Cc1ccccc1)n2Cc1ccccc1 : 45.8 µM
17) C[C@H](CSC(=O)c1ccccc1)C(=O)N1c2ccccc2C[C@H]1C(=O)O : > 100 µM
18) FC(F)(F)C12C34C=CC5(CCC6(C=CC1(CC3)O6)C52C(F)(F)F)O4 (configuration not stated) : > 100 µM
19) c1ccc2c(c1)CCN2CCc1c[nH]c2ccccc12 : > 10 µM
20) CC(=O)C1=C([O-])C(C)OC1=O.CC(=O)C1=C([O-])C(C)OC1=O.[NH-]C1CCCC[C@H]1[NH-].[Pt+4] (configuration not stated) : > 100 µM
21) O=C(O)c1c[nH]cc1C(=O)O : > 100 µM
22) Cc1cccc(C(C)(C)C)c1NC(=O)C(=O)C(c1cnc2ccccc2n1)[N+](=O)[O-] (configuration not stated) : > 100 µM

Measured values drawn from PubChem BioAssay (NCI) for this set.
